TESTED SYSTEM: purified human Hsp90
TEST PROTOCOL: Binding Assay: fluorescence polarization with BODIPY-labeled geldanamycin
ASSAY CONTEXT: BODIPY-GM 10 nM, Hsp90 30 nM
Assignment: determine reported pIC50 for the given compounds.
Keep it numeric: pIC50 is minus log10 of the concentration in mol/L.

### Prompt Dear colleague, please send me the reported pIC50 for Nc1ncnc2c1nc(Sc1cc3c(cc1Br)OCO3)n2CCc1ccccc1 [Example 13] when you can.
### Response 7.35

### Prompt Dear colleague, please send me the reported pIC50 for COc1ccc(OC)c(Sc2nc3c(N)ncnc3n2CCN2CCN(C(=O)C(C)(C)C)CC2)c1 [Example 444] when you can.
### Response 5.96

### Prompt Dear colleague, please send me the reported pIC50 for Nc1ncnc2c1nc(Sc1cc3c(cc1Br)OCO3)n2CCc1c(Cl)cccc1Cl [Example 128] when you can.
### Response 7.18

### Prompt Dear colleague, please send me the reported pIC50 for CO[C@H](C)C(=O)N1CCC(CCn2c(Sc3cc4c(cc3Br)OCO4)nc3c(N)ncnc32)CC1 [Example 725] when you can.
### Response 7.00

###

TESTED SYSTEM: purified human Hsp90
TEST PROTOCOL: Binding Assay: fluorescence polarization with BODIPY-labeled geldanamycin
ASSAY CONTEXT: BODIPY-GM 10 nM, Hsp90 30 nM
IC50 strictly under 200 nM means 1.0; at 200 nM or over means 0.0.

### Prompt hey, is IC50 for Nc1ncnc2c1nc(Sc1cc3c(cc1Br)OCO3)n2CC[C@H]1CCCCN1 [Example 475] lower than 200 nM or not?
### Response 1.0

### Prompt hey, is IC50 for CC(C)(C)OC(=O)N1CCC[C@@H](CCn2c(Sc3cc4c(cc3Br)OCO4)nc3c(N)ncnc32)C1 [Example 391] lower than 200 nM or not?
### Response 0.0

### Prompt hey, is IC50 for CCCNC(=N)N1CCC(CCn2c(Sc3cc4c(cc3Br)OCO4)nc3c(N)ncnc32)CC1 [Example 618] lower than 200 nM or not?
### Response 1.0

### Prompt hey, is IC50 for COc1ccc(OC)c(Sc2nc3c(N)ncnc3n2CCn2ccnc2)c1 [Example 335] lower than 200 nM or not?
### Response 0.0

### Prompt hey, is IC50 for COc1cccc(CCn2cnc(N)c3nc(Sc4cc(OC)ccc4OC)nc2-3)c1 [Example 36] lower than 200 nM or not?
### Response 0.0

### Prompt hey, is IC50 for O=c1[nH]cnc2c1nc(Sc1ccc3c(c1)OCO3)n2CCc1ccccc1 [Example 224] lower than 200 nM or not?
### Response 0.0

### Prompt hey, is IC50 for COc1ccc(OC)c(Sc2nc3c(N)ncnc3n2Cc2ccc(F)cc2)c1 [Example 266] lower than 200 nM or not?
### Response 0.0

### Prompt hey, is IC50 for CC(C)[C@@H]1C[C@H](CCn2c(Sc3cc4c(cc3Br)OCO4)nc3c(N)ncnc32)CCN1 (relative stereo) [Example 480] lower than 200 nM or not?
### Response 1.0

### Prompt hey, is IC50 for COc1ccc(OC)c(Sc2nc3c(N)ncnc3n2CCN2CCN(C(C)C)CC2)c1 [Example 493] lower than 200 nM or not?
### Response 0.0

### Prompt hey, is IC50 for COc1ccc(C#N)cc1Sc1nc2c(N)ncnc2n1CCc1ccccc1 [Example 304] lower than 200 nM or not?
### Response 0.0

### Prompt hey, is IC50 for COc1ccc(OC)c(Sc2nc3c(N)ncnc3n2CCC2CCCNC2)c1 (centres unmarked) [Example 470] lower than 200 nM or not?
### Response 0.0

### Prompt hey, is IC50 for Nc1ncnc2c1nc(Sc1cc(OC(F)(F)F)ccc1OC1CCCC1)n2CCc1ccccc1 [Example 328] lower than 200 nM or not?
### Response 0.0

### Prompt hey, is IC50 for CC(C)(C)OC(=O)N1CCC(CCn2c(Sc3cc4c(cc3Br)OCO4)nc3c(N)ncnc32)C1 (centres unmarked) [Example 415] lower than 200 nM or not?
### Response 0.0

### Prompt hey, is IC50 for COc1ccc(OC)c(Sc2nc3c(N)ncnc3n2CCc2ccncc2)c1 [Example 134] lower than 200 nM or not?
### Response 0.0

### Prompt hey, is IC50 for Nc1ncnc2c1nc(Sc1ccc3c(c1)OCO3)n2CCCc1ccccc1 [Example 6] lower than 200 nM or not?
### Response 0.0

### Prompt hey, is IC50 for Nc1ncnc2c1nc(Sc1cc3c(cc1Br)OCO3)n2CCC1CCN(C(=O)NCCCC(=O)O)CC1 [Example 502] lower than 200 nM or not?
### Response 1.0

### Prompt hey, is IC50 for Nc1ncnc2c1nc(Sc1cc3c(cc1Br)OCO3)n2CCC1CCN(CC2CCCCC2)CC1 [Example 581] lower than 200 nM or not?
### Response 0.0

### Prompt hey, is IC50 for CS(=O)(=O)N1CCC(CCn2c(Sc3cc4c(cc3Br)OCO4)nc3c(N)ncnc32)CC1 [Example 378] lower than 200 nM or not?
### Response 0.0

### Prompt hey, is IC50 for COc1ccc(OC)c(Sc2nc3c(N)ncnc3n2CCc2ccc(N(C)C)cc2)c1 [Example 185] lower than 200 nM or not?
### Response 0.0

### Prompt hey, is IC50 for CC(=O)N1CCC(CCn2c(Sc3ccc4c(c3)OC(F)(F)O4)nc3c(N)ncnc32)CC1 [Example 571] lower than 200 nM or not?
### Response 0.0

### Prompt hey, is IC50 for Nc1ncnc2c1nc(Sc1cc3c(cc1I)OCO3)n2CCc1ccccc1 [Example 33] lower than 200 nM or not?
### Response 1.0

### Prompt hey, is IC50 for Nc1ncnc2c1nc(Sc1cc3c(cc1Br)OCO3)n2CCc1ccc2ccccc2c1 [Example 302] lower than 200 nM or not?
### Response 0.0

### Prompt hey, is IC50 for CC(C)(C)OC(=O)N[C@H]1CC[C@H](CCn2c(Sc3cc4c(cc3Br)OCO4)nc3c(N)ncnc32)CC1 [Example 455] lower than 200 nM or not?
### Response 1.0

### Prompt hey, is IC50 for COc1ccc(OC)c(Sc2nc3c(N)ncnc3n2CCc2ccc(C)cc2)c1 [Example 23] lower than 200 nM or not?
### Response 0.0

### Prompt hey, is IC50 for COc1ccc(OC)c(Sc2nc3c(N)ncnc3n2CCC2(F)C(F)(F)C(F)(F)C(F)(F)C(F)(F)C2(F)F)c1 [Example 384] lower than 200 nM or not?
### Response 0.0

### Prompt hey, is IC50 for COc1cc(Br)c(Sc2nc3c(N)ncnc3n2CCC2CCN(C(C)=O)CC2)cc1OC [Example 565] lower than 200 nM or not?
### Response 0.0

### Prompt hey, is IC50 for COc1ccc(OC)c(Sc2nc3c(N)ncnc3n2Cc2ccc([N+](=O)[O-])cc2)c1 [Example 84] lower than 200 nM or not?
### Response 0.0

### Prompt hey, is IC50 for C[C@@H](N)C(=O)N1CCC(CCn2c(Sc3cc4c(cc3Br)OCO4)nc3c(N)ncnc32)CC1 [Example 746] lower than 200 nM or not?
### Response 0.0

### Prompt hey, is IC50 for COc1ccc([N+](=O)[O-])cc1Sc1nc2c(N)ncnc2n1CCc1ccccc1Cl [Example 318] lower than 200 nM or not?
### Response 0.0

### Prompt hey, is IC50 for Nc1ncnc2c1nc(Sc1cc3c(cc1Br)OCO3)n2CCC1CCN(C(=O)[C@@H]2CCCN2)CC1 [Example 753] lower than 200 nM or not?
### Response 1.0

###

TESTED SYSTEM: purified human Hsp90
TEST PROTOCOL: Binding Assay: fluorescence polarization with BODIPY-labeled geldanamycin
ASSAY CONTEXT: BODIPY-GM 10 nM, Hsp90 30 nM
METRIC NAME: log10(IC50) (log10 of the value in µM)
Note the log scale: values are log10 of IC50 expressed in µM.

### Prompt Dear colleague, please send me the reported log10(IC50) for COc1cc(Sc2nc3c(N)ncnc3n2CCC2CCN(C=O)CC2)ncn1 [Example 544] when you can.
### Response 0.15

### Prompt Dear colleague, please send me the reported log10(IC50) for CC(=O)N1CCC(CCn2c(Sc3cc(Br)c4c(c3)CCO4)nc3c(N)ncnc32)CC1 [Example 530] when you can.
### Response 0.40

### Prompt Dear colleague, please send me the reported log10(IC50) for Nc1ncn(CCc2ccccc2)c2nc(Sc3cc4c(cc3Br)OCO4)nc1-2 [Example 14] when you can.
### Response 0.70

### Prompt Dear colleague, please send me the reported log10(IC50) for COc1ccc(OC)c(Sc2nc3c(N)ncnc3n2CCc2ccsc2)c1 [Example 197] when you can.
### Response -0.77

### Prompt Dear colleague, please send me the reported log10(IC50) for COc1ccc(F)cc1Sc1nc2c(N)ncnc2n1CCc1ccccc1Cl [Example 316] when you can.
### Response 1.26

### Prompt Dear colleague, please send me the reported log10(IC50) for Nc1ncnc2c1nc(Sc1ccc3c(c1)OCO3)n2CCc1ccccc1Cl [Example 289] when you can.
### Response 0.20

### Prompt Dear colleague, please send me the reported log10(IC50) for COc1ccc(OC)c(Sc2nc3c(N)ncnc3n2CCc2cccc3ccccc23)c1 [Example 67] when you can.
### Response 0.18

### Prompt Dear colleague, please send me the reported log10(IC50) for COc1ccc(OC)c(Sc2nc3c(N)ncnc3n2CCc2ccccc2Cl)c1 [Example 25] when you can.
### Response -1.39

### Prompt Dear colleague, please send me the reported log10(IC50) for Nc1ncnc2c1nc(Sc1cc3c(cc1Br)OCO3)n2CCC1CCN(C(=O)C2(C(F)(F)F)CC2)CC1 [Example 526] when you can.
### Response -0.52

### Prompt Dear colleague, please send me the reported log10(IC50) for Nc1ncnc2c1nc(Sc1cc3c(cc1Br)OCO3)n2CCc1cccc(F)c1 [Example 109] when you can.
### Response -0.52

### Prompt Dear colleague, please send me the reported log10(IC50) for CN1[C@@H]2CC[C@H]1C[C@@H](CCn1c(Sc3cc4c(cc3Br)OCO4)nc3c(N)ncnc31)C2 [Example 426] when you can.
### Response -0.82

### Prompt Dear colleague, please send me the reported log10(IC50) for N=C(N)N1CCC(CCn2c(Sc3cc4c(cc3Br)OCO4)nc3c(N)ncnc32)CC1 [Example 616] when you can.
### Response -1.05

### Prompt Dear colleague, please send me the reported log10(IC50) for Nc1ncnc2c1nc(Sc1cc3c(cc1Br)OCO3)n2CCC1CCCN(S(=O)(=O)C(F)(F)F)C1 (stereo not drawn) [Example 402] when you can.
### Response -0.23

### Prompt Dear colleague, please send me the reported log10(IC50) for COCc1cc2c(cc1Sc1nc3c(N)ncnc3n1CCC1CCN(C=O)CC1)OCO2 [Example 624] when you can.
### Response -0.24

### Prompt Dear colleague, please send me the reported log10(IC50) for Nc1ncnc2c1nc(Sc1cc(Cl)c(Cl)cc1Cl)n2CCc1ccccc1 [Example 259] when you can.
### Response 1.08

### Prompt Dear colleague, please send me the reported log10(IC50) for Nc1ncnc2c1nc(Sc1cc3c(cc1Br)OCO3)n2CCC1CCN(C(=O)[C@@H]2CCN2)CC1 [Example 752] when you can.
### Response -0.89

### Prompt Dear colleague, please send me the reported log10(IC50) for COc1cc(Sc2nc3c(N)ncnc3n2CCC2CCN(C=O)CC2)c2ocnc2c1 [Example 534] when you can.
### Response 0.70

### Prompt Dear colleague, please send me the reported log10(IC50) for COc1ccc(OC)c(Sc2nc3c(N)ncnc3n2CCC2CCNCC2)c1 [Example 469] when you can.
### Response 0.94

### Prompt Dear colleague, please send me the reported log10(IC50) for Nc1ncnc2c1nc(Sc1cc3c(cc1Br)OCO3)n2CCC1CC2CCC(C1)O2 (stereo not drawn) [Example 605] when you can.
### Response -1.25

### Prompt Dear colleague, please send me the reported log10(IC50) for CC(C)(C)OC(=O)NC(CCn1c(Sc2cc3c(cc2Br)OCO3)nc2c(N)ncnc21)C1CCC1 (stereo not drawn) [Example 672] when you can.
### Response -0.05

### Prompt Dear colleague, please send me the reported log10(IC50) for CCC(C)C(Cn1c(Sc2cc3c(cc2Br)OCO3)nc2c(N)ncnc21)c1ccccc1 (stereo not drawn) [Example 99] when you can.
### Response -0.52

### Prompt Dear colleague, please send me the reported log10(IC50) for Cc1cc(=O)n(CCn2c(Sc3cc4c(cc3Br)OCO4)nc3c(N)ncnc32)c(=O)[nH]1 [Example 578] when you can.
### Response -0.26

### Prompt Dear colleague, please send me the reported log10(IC50) for CO[C@@H](C)C(=O)N1CCC(CCn2c(Sc3cc4c(cc3Br)OCO4)nc3c(N)ncnc32)CC1 [Example 724] when you can.
### Response -0.98

### Prompt Dear colleague, please send me the reported log10(IC50) for CC(C)(C)OC(=O)N1CCC(CCn2c(Sc3cc4c(cc3Br)OCO4)nc3c(N)ncnc32)CC1 [Example 341] when you can.
### Response -0.70
